# experiment: Inhibition of baker's yeast alpha-glucosidase using phenol-alphaD-glycopyranoside as substrate preincubated for 10 mins followed by substrate addition and measured after 30 mins
# Set-up: species or system Saccharomyces cerevisiae
measured-property: IC50 (nM)

entry-smiles	measurement-units	IC50
COc1ccccc1/C=C1\C[C@]2(C)[C@H]3C[C@@H](F)[C@]45OC(=O)[C@@]6(CCC(C)(C)C[C@H]64)CC[C@@]5(C)[C@]3(C)CC[C@H]2C(C)(C)C1=O	nM	2740

(I) COc1ccc(/C=C2\C[C@]3(C)[C@H]4C[C@@H](F)[C@]56OC(=O)[C@@]7(CCC(C)(C)C[C@H]75)CC[C@@]6(C)[C@]4(C)CC[C@H]3C(C)(C)C2=O)cc1
(II) COc1ccc(/C=C2\C[C@]3(C)[C@H]4C[C@@H](F)[C@]56OC(=O)[C@@]7(CCC(C)(C)C[C@H]75)CC[C@@]6(C)[C@]4(C)CC[C@H]3C(C)(C)C2=O)c(OC)c1
Exam item: Dear colleague, could you let me know whether I or II has the lower recorded IC50? Thanks. When you have decided, please share the label of that item.
Marked response: I
(I: 330 nM, II: 1920 nM)
